- Test System: Type-2 angiotensin II receptor (Homo sapiens); also: in other assays of this panel Not Active means under 50% inhibition at 10 µM
- Sequence (P50052 whole entry): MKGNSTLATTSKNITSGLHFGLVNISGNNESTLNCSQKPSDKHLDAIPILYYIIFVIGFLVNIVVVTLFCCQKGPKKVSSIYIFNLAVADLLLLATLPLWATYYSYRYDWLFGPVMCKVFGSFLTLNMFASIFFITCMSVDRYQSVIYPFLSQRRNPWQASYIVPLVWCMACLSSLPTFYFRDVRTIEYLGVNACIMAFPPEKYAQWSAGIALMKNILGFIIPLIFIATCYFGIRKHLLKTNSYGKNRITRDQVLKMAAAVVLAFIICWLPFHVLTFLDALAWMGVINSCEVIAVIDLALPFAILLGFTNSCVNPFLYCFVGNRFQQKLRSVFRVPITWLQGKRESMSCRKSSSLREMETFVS
- Assay type: cell-based
- Measurement Context: cho-k1
Measurement Label: IC50

Molecule	Test Result
CN(N=O)C(=O)N[C@@H](C=O)[C@@H](O)[C@H](O)[C@H](O)CO [STREPTOZOCIN]	Not Active
c1ccc2c(c1)cc1ccc3cccc4ccc2c1c34	Not Active
CC(C)(Oc1ccc(CCNC(=O)c2ccc(Cl)cc2)cc1)C(=O)O [BEZAFIBRATE]	Not Active
c1ccc2[nH]c(-c3cscn3)nc2c1 [THIABENDAZOLE]	Not Active

Sure, the documented IC50 for CCc1ccc(C(=O)C(C)CN2CCCCC2)cc1 (stereo not given) [EPERISONE] is Not Active
